Data origin: paper PMC12592173

- Test System: EGFR^Del19 (Homo sapiens, UniProt P00533+Q96SW2, DEL746-750)
- Sequence (P00533 with tags, fused parts or gaps DEL746-750): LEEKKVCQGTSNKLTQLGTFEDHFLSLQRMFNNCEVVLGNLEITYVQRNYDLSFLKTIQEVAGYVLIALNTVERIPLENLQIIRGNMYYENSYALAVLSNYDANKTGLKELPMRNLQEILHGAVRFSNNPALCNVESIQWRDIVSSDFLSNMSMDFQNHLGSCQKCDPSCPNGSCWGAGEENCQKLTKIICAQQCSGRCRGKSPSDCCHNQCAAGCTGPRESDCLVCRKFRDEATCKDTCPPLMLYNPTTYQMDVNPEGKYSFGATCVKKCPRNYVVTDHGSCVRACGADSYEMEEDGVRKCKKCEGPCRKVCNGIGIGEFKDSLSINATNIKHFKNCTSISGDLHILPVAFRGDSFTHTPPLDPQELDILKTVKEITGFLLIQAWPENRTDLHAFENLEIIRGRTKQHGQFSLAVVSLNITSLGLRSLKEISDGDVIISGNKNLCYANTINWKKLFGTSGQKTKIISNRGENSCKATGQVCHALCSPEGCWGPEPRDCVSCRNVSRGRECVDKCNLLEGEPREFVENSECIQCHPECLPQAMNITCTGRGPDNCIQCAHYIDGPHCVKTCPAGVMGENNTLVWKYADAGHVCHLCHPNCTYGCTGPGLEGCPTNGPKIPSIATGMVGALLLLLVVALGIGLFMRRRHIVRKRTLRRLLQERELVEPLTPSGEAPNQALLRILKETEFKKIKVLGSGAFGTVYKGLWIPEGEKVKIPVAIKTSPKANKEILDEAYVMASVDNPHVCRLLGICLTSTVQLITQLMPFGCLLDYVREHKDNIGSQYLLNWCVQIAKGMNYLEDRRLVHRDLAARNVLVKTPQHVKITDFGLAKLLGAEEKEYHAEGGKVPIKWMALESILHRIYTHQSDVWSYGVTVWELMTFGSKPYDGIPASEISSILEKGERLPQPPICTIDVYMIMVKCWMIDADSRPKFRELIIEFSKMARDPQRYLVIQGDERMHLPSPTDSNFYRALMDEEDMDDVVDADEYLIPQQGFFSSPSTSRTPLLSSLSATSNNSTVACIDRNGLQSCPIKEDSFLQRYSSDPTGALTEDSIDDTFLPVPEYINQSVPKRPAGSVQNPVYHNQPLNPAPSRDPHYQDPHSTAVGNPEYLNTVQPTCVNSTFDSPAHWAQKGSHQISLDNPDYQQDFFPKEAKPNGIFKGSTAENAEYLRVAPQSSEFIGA
- Sequence (Q96SW2 whole entry, stated change not applied): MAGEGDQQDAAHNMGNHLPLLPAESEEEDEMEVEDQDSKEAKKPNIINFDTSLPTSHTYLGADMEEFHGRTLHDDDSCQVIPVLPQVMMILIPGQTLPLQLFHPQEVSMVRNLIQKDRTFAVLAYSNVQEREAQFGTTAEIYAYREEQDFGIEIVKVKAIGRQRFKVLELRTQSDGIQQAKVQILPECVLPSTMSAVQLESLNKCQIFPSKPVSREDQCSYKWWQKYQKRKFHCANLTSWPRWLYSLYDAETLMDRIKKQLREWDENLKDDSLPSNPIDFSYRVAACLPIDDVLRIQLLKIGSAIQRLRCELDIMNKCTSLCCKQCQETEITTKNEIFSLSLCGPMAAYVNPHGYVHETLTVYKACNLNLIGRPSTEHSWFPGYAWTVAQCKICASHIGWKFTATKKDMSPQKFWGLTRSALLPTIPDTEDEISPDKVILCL
- Method Summary: Western blot of EGFR degradation in HCC827 cells
- Type: cell-based
- Design: host or cells: HCC827
- Conditions Used: 10 nM, HCC827, 24 h; average of two independent experiments; NA = not active
Observation Type: EGFR degradation (%)

molecule="O=C1CCC(N2C(=O)c3ccc(N4CCN(CCCCCCCCCCOc5cc6ncnc(Nc7ccc(F)c(Cl)c7)c6cc5OCCCN5CCOCC5)CC4)cc3C2=O)C(=O)N1 (stereo not drawn)" test_system="EGFR^Del19 (Homo sapiens, UniProt P00533+Q96SW2, DEL746-750)" observation_type="EGFR degradation (%)" observed_result="19.4 ± 15.1%"
molecule="O=C1CCC(N2C(=O)c3ccc(N4CCN(CCN5CCN(CCOc6cc7ncnc(Nc8ccc(F)c(Cl)c8)c7cc6OCCCN6CCOCC6)CC5)CC4)cc3C2=O)C(=O)N1 (stereo not drawn)" test_system="EGFR^Del19 (Homo sapiens, UniProt P00533+Q96SW2, DEL746-750)" observation_type="EGFR degradation (%)" observed_result="25.1 ± 11.2%"
molecule="O=C1CCC(N2C(=O)c3ccc(N4CCN(C(=O)CCCCCCCOc5cc6ncnc(Nc7ccc(F)c(Cl)c7)c6cc5OCCCN5CCOCC5)CC4)cc3C2=O)C(=O)N1 (stereo not drawn)" test_system="EGFR^Del19 (Homo sapiens, UniProt P00533+Q96SW2, DEL746-750)" observation_type="EGFR degradation (%)" observed_result="15.0 ± 4.0%"
molecule="O=C1CCC(N2C(=O)c3ccc(N4CCN(CCCC(=O)N5CCN(CCCOc6cc7ncnc(Nc8ccc(F)c(Cl)c8)c7cc6OCCCN6CCOCC6)CC5)CC4)cc3C2=O)C(=O)N1 (stereo not drawn)" test_system="EGFR^Del19 (Homo sapiens, UniProt P00533+Q96SW2, DEL746-750)" observation_type="EGFR degradation (%)" observed_result="66.3 ± 22.7%"
molecule="O=C1CCC(N2C(=O)c3ccc(OCCCCCCCCCCCOc4cc5ncnc(Nc6ccc(F)c(Cl)c6)c5cc4OCCCN4CCOCC4)cc3C2=O)C(=O)N1 (stereo not drawn)" test_system="EGFR^Del19 (Homo sapiens, UniProt P00533+Q96SW2, DEL746-750)" observation_type="EGFR degradation (%)" observed_result="7.0 ± 9.3%"
molecule="O=C1CCC(N2C(=O)c3ccc(OCCCCCCCCOc4cc5ncnc(Nc6ccc(F)c(Cl)c6)c5cc4OCCCN4CCOCC4)cc3C2=O)C(=O)N1 (stereo not drawn)" test_system="EGFR^Del19 (Homo sapiens, UniProt P00533+Q96SW2, DEL746-750)" observation_type="EGFR degradation (%)" observed_result="15.3 ± 5.9%"
molecule="O=C1CCC(N2C(=O)c3ccc(N4CCN(CCCCN5CCN(CCCOc6cc7ncnc(Nc8ccc(F)c(Cl)c8)c7cc6OCCCN6CCOCC6)CC5)CC4)cc3C2=O)C(=O)N1 (stereo not drawn)" test_system="EGFR^Del19 (Homo sapiens, UniProt P00533+Q96SW2, DEL746-750)" observation_type="EGFR degradation (%)" observed_result="32.4 ± 17.1%"
molecule="O=C1CCC(N2C(=O)c3ccc(OCCCCCOc4cc5ncnc(Nc6ccc(F)c(Cl)c6)c5cc4OCCCN4CCOCC4)cc3C2=O)C(=O)N1 (stereo not drawn)" test_system="EGFR^Del19 (Homo sapiens, UniProt P00533+Q96SW2, DEL746-750)" observation_type="EGFR degradation (%)" observed_result="−6.6 ± 4.2%"

Exercise: What does the data say about its EGFR degradation (%)? Entry: O=C1CCC(N2C(=O)c3ccc(N4CCN(CCCN5CCN(CCOc6cc7ncnc(Nc8ccc(F)c(Cl)c8)c7cc6OCCCN6CCOCC6)CC5)CC4)cc3C2=O)C(=O)N1 (stereo not drawn)
Key: 16.8 ± 10.5%
